Tested on: modified Shay rat
Assay: Antiulcerogenic and secretion-inhibiting action on the modified Shay rat (pylorus ligature plus oral acetylsalicylic acid)
Type: in vivo
Conditions: 3.0 μmol/kg i.d. (intraduodenal), 4 hours
parameter.measured: Inhibition of acid secretion: Reduction in HCl secretion (%)
Give bare numbers, in %.

These recorded examples may help you get a feel for the data.
• Cc1nc2c(O[C@@H]3c4ccccc4C[C@H]3O)cccn2c1CC#N (relative stereo) = 63
• Cc1nc2c(O[C@@H]3c4ccc(F)cc4C[C@H]3O)cccn2c1CO (relative stereo) = 41
• Cc1nc2c(O[C@@H]3c4ccccc4C[C@H]3O)cccn2c1N.Cl (relative stereo) = 32
• Cc1nc2c(O[C@@H]3c4ccccc4C[C@H]3O)cccn2c1CO (relative stereo) = 20

# evaluate next
Record Cc1nc2c(O[C@@H]3c4ccccc4C[C@H]3O)cccn2c1C (relative stereo) , field Inhibition of acid secretion: Reduction in HCl secretion: 52

---

Tested on: modified Shay rat
Experiment: Antiulcerogenic and secretion-inhibiting action on the modified Shay rat (pylorus ligature plus oral acetylsalicylic acid)
Format: in vivo
Conditions: 1.0 μmol/kg i.d. (intraduodenal), 4 hours
parameter.measured: Inhibition of acid secretion: Reduction in HCl secretion (%)
Give bare numbers, in %.

Please review the following examples before continuing.
* Cc1nc2c(O[C@@H]3c4ccccc4C[C@H]3O)cccn2c1C (relative stereo) | 23
* Cc1nc2c(O[C@@H]3c4ccccc4C[C@H]3O)cccn2c1CO (relative stereo) | 25
* Cc1nc2c(O[C@@H]3c4ccccc4C[C@H]3O)cccn2c1CC#N (relative stereo) | 22

Summary for this molecule, Cc1nc2c(O[C@@H]3c4ccccc4C[C@H]3O)cccn2c1N.Cl (relative stereo) : Inhibition of acid secretion: Reduction in HCl secretion is 16

---

Test system: modified Shay rat
Assay: Antiulcerogenic and secretion-inhibiting action on the modified Shay rat (pylorus ligature plus oral acetylsalicylic acid)
Type: in vivo
Details: Rattus norvegicus, 4 h; i.d.; dose (interpolated) which reduces the lesion index by 50% compared with control group; read-out: Protective action on stomach: Approx. ED50
parameter.measured: ED50

Examples with answers:
* Cc1nc2c(O[C@@H]3c4ccccc4C[C@H]3O)cccn2c1CC#N (relative stereo) [Example 4] | ~1.04 µmol/kg
* Cc1nc2c(O[C@@H]3c4ccccc4C[C@H]3O)cccn2c1CO (relative stereo) [Example 8] | ~0.69 µmol/kg
* Cc1nc2c(O[C@@H]3c4ccccc4C[C@H]3O)cccn2c1C (relative stereo) [Example 2] | ~0.84 µmol/kg

For this compound ( Cc1nc2c(O[C@@H]3c4ccccc4C[C@H]3O)cccn2c1N.Cl (relative stereo) [Example 11] ), measured ED50 is ~1.69 µmol/kg
